Tested on: PBMC
measurementProtocol: Cytokine release assay to measure IL-6 from PBMC (ELISA)
Type: cell-based, human
experimentalContext: Homo sapiens, 24 hr, read-out: EC50 of IL-6, 24 hr
Method: Fresh blood was collected from healthy volunteers and stored in Heparin Sodium tubes. 15 mL of blood was subsequently transferred to a 50 ml centrifugal tube and gently mixed with equal volume of DPBS. 10 ml Ficoll was slowly underlayed using pipette. […] RPMI-1640 Medium was added to the collected PBMC and the number of PBMC determined by counting. […] PBMC were counted and cell densities adjusted. […] ELISA kits for IL-6 (Invitrogen) were used for quantitation of cytokine released. […]
readoutName: EC50

C=CCn1c(=O)n([C@@H]2O[C@H](CO)[C@@H](O)[C@H]2O)c2nc(N)[nH]c(=O)c21 [LOX, 7-allyl-7,8-dihydro-8-oxo-guanosine]: > 500 µM
